target: Glutamate NMDA receptor; Grin1/Grin2b (Rattus norvegicus, UniProt P35439+Q00960); test: Antagonist activity at rat recombinant NR1-NR2B receptor expressed in Xenopus oocytes at holding potential of -40mV by two-electrode voltage-clamp electrophysiology; format: functional, cell-based, Oocyte; conditions: read-out: IC50
Sequence (Q00960 whole entry, other chains not shown): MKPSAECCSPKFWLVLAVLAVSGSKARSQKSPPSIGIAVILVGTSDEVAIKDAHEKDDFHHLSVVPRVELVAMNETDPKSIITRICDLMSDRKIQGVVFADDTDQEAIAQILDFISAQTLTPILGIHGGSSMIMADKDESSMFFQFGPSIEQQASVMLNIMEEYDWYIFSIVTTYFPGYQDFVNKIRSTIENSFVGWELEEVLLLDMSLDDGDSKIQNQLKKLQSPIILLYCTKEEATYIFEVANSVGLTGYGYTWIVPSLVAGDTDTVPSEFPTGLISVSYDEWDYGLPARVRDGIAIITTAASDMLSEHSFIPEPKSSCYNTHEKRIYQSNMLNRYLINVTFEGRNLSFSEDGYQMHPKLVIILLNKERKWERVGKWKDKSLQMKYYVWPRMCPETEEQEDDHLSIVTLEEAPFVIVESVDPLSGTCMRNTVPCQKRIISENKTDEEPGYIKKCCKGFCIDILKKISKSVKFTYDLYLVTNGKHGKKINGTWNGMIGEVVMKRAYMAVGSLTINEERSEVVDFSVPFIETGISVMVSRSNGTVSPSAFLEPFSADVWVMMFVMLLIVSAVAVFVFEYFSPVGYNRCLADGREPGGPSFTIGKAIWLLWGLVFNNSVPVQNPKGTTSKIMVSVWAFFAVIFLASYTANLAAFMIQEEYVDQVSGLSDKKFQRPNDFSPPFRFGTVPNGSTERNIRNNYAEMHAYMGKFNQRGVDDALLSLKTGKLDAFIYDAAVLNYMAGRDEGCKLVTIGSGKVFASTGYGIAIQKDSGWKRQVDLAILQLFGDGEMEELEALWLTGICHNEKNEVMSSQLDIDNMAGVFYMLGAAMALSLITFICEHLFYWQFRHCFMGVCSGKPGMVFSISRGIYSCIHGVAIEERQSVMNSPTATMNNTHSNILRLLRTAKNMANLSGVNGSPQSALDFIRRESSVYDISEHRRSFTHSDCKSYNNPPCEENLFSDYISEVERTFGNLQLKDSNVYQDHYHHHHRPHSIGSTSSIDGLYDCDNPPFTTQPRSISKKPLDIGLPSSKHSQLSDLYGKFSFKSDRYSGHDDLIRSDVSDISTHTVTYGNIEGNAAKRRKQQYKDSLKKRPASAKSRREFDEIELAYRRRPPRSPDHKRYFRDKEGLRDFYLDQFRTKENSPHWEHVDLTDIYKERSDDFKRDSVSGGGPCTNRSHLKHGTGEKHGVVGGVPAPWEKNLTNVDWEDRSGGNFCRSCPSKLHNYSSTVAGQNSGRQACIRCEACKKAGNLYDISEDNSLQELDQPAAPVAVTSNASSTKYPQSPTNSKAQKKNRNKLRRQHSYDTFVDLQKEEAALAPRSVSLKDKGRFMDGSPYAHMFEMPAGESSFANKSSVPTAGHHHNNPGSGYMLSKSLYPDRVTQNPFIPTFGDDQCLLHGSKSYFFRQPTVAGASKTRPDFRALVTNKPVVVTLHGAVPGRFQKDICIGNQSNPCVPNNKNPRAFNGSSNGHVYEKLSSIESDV
# Criterion met = IC50 below 100 µM (exclusive); Criterion not met = IC50 at/above 100 µM

Examples with answers:
>>> df
                               given_smiles       answer_label
0  O=C(O)c1cccc(-n2c(/C=C/c3cccc([N+](=O)[O-])c3)nc3ccc(I)cc3c2=O)c1      Criterion met
1  O=C(O)c1ccc(-n2c(/C=C/c3cccc([N+](=O)[O-])c3)nc3ccc(-c4cccs4)cc3c2=O)cc1  Criterion not met
2  O=c1c2ccccc2nc(/C=C/c2cccnc2)n1-c1ccccc1      Criterion met
3  O=C(O)c1ccc(-n2c(/C=C/c3cccc([N+](=O)[O-])c3)nc3cc4c(cc3c2=O)OCCO4)cc1  Criterion not met
4  O=C(O)COc1ccc(/C=C/c2nc3ccccc3c(=O)n2-c2ccc(C(=O)O)cc2)cc1  Criterion not met

Field: below-cutoff. Rule: recorded IC50 strictly less than 100 µM. Subject: `O=C(O)c1ccc(/C=C/c2nc3ccccc3c(=O)n2-c2ccc(C(=O)O)cc2)cc1`
Criterion not met

Field: below-cutoff. Rule: recorded IC50 strictly less than 100 µM. Subject: `O=C(O)c1ccc(-n2c(/C=C/c3ccc([N+](=O)[O-])cc3)nc3ccc(I)cc3c2=O)cc1`
Criterion not met

Field: below-cutoff. Rule: recorded IC50 strictly less than 100 µM. Subject: `O=C(O)c1ccc(-n2c(/C=C/c3ccc4c(c3)OCCO4)nc3ccccc3c2=O)cc1`
Criterion not met

Field: below-cutoff. Rule: recorded IC50 strictly less than 100 µM. Subject: `O=C(O)c1ccc(-n2c(/C=C/c3cccc(C(F)(F)F)c3)nc3ccccc3c2=O)cc1`
Criterion met

Field: below-cutoff. Rule: recorded IC50 strictly less than 100 µM. Subject: `COc1ccc2nc(/C=C/c3ccc([N+](=O)[O-])cc3)n(-c3cccc(C(=O)O)c3)c(=O)c2c1`
Criterion not met

----------
Reported Ratio IC50 values for a set of molecules
organism: Rattus norvegicus; experiment: Selectivity ratio of IC50 for rat recombinant NR1-NR2A receptor to IC50 for rat recombinant NR1-NR2D receptor
No unit in the answer, please; the number alone is enough.

>>> print(df.to_string())
                               given_smiles  result_number
0  O=c1c2ccccc2nc(/C=C/c2cccnc2)n1-c1ccccc1              1
1  O=C(O)c1ccc(-n2c(/C=C/c3ccc(N4CCOCC4)cc3)nc3ccccc3c2=O)cc1              1
2  COC(=O)c1cccc(/C=C/c2nc3ccc(OC)cc3c(=O)n2-c2ccc(C(=O)O)cc2)c1             13
3  O=C(O)c1ccc(-n2c(/C=C/c3cccc([N+](=O)[O-])c3)nc3ccc(-c4ccccc4)cc3c2=O)cc1              6
4  O=C(O)c1ccc(-n2c(/C=C/c3ccc(O)cc3)nc3ccccc3c2=O)cc1              1
5  O=C(O)c1ccc(-n2c(/C=C/c3cccc([N+](=O)[O-])c3)nc3ccc(Cl)cc3c2=O)cc1             16
6  COc1ccc2nc(/C=C/c3cccc([N+](=O)[O-])c3)n(-c3ccc(C(=O)O)cc3)c(=O)c2c1             76
7  COc1ccc2nc(/C=C/c3cccc([N+](=O)[O-])c3)n(-c3cccc(C(=O)O)c3)c(=O)c2c1             16

Proceeding to the next molecule to report its Ratio IC50.
Please give the measured Ratio IC50 for this molecule: `O=c1c2cc(I)ccc2nc(/C=C/c2cccnc2)n1-c1ccc([N+](=O)[O-])cc1`
1

----------
target: Glutamate NMDA receptor; Grin1/Grin2a (Rattus norvegicus, UniProt P35439+Q00959); assay: Antagonist activity at rat recombinant NR1-NR2A receptor expressed in Xenopus oocytes at holding potential of -40mV by two-electrode voltage-clamp electrophysiology; assay type: functional, cell-based, Oocyte; conditions: read-out: IC50
Sequence (Q00959 whole entry, other chains not shown): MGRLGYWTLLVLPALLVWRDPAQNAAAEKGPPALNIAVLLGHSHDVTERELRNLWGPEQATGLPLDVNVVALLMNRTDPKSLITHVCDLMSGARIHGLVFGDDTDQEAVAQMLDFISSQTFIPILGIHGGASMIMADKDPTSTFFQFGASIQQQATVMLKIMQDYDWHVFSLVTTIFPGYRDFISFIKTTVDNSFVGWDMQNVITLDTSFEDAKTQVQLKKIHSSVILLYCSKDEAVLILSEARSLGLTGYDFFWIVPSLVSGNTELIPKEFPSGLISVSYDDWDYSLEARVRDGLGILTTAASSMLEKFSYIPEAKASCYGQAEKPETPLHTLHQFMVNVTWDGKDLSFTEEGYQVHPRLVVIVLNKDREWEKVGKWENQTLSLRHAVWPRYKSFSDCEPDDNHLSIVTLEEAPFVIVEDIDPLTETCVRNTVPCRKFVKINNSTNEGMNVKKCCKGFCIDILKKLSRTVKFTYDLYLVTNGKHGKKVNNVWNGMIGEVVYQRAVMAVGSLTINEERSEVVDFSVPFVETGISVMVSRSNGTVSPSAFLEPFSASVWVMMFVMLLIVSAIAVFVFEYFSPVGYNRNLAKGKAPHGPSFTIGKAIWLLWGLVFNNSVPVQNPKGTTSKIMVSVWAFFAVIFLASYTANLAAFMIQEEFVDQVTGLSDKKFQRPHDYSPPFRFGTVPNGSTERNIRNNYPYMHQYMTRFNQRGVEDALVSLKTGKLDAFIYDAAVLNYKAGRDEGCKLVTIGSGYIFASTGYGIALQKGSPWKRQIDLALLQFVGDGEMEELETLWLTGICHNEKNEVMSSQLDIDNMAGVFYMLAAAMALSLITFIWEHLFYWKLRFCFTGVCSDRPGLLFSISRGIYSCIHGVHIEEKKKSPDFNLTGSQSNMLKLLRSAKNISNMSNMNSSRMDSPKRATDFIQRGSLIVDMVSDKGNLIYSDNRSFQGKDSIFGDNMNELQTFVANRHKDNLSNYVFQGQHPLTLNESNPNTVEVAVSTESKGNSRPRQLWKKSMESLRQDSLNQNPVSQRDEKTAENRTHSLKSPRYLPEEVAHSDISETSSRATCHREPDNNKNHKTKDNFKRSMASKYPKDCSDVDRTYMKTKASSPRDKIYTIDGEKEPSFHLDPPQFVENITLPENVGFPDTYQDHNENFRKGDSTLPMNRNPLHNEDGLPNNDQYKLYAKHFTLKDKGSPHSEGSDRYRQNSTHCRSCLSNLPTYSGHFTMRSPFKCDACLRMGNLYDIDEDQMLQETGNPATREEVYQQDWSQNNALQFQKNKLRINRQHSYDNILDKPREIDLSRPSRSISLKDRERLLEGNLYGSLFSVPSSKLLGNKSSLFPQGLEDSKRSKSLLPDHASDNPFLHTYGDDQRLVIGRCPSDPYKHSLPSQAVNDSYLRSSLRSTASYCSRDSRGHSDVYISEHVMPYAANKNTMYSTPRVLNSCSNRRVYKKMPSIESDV
Reported IC50 values for a set of compounds

Study these solved cases before continuing.
                               given_smiles    result
0  Cc1cccc(-n2c(/C=C/c3cccnc3)nc3ccc(I)cc3c2=O)c1  > 300 µM
1  O=C(O)c1ccc(-n2c(/C=C/c3cccc([N+](=O)[O-])c3)nc3cc4ccccc4cc3c2=O)cc1     11 µM
2  COc1ccccc1-n1c(/C=C/c2cccnc2)nc2ccc(I)cc2c1=O     31 µM
3  N#Cc1ccc(/C=C/c2nc3ccccc3c(=O)n2-c2ccc(C(=O)O)cc2)cc1     94 µM
4  O=C(O)c1ccc(-n2c(/C=C/c3cccc([N+](=O)[O-])c3)nc3ccc(Br)cc3c2=O)cc1     17 µM
5  O=C(O)c1cccc(-n2c(/C=C/c3ccccc3[N+](=O)[O-])nc3ccccc3c2=O)c1     17 µM
6  COc1ccc2nc(/C=C/c3ccc([N+](=O)[O-])cc3)n(-c3ccc(C(=O)O)cc3)c(=O)c2c1    197 µM
7  O=C(O)c1ccc(-n2c(/C=C/c3cccc([N+](=O)[O-])c3)nc3ccccc3c2=O)cc1     21 µM
8  O=c1c2cc(I)ccc2nc(/C=C/c2cccnc2)n1-c1ccc([N+](=O)[O-])cc1  > 300 µM
9  O=C(O)c1ccccc1-n1c(/C=C/c2ccc([N+](=O)[O-])cc2)nc2ccccc2c1=O  > 300 µM

Proceeding to the next compound to report its IC50.
Please give the measured IC50 for this compound: `CCCc1ccc2nc(/C=C/c3cccc([N+](=O)[O-])c3)n(-c3ccc(C(=O)O)cc3)c(=O)c2c1`
28 µM

----------
target: Glutamate NMDA receptor; Grin1/Grin2c (Rattus norvegicus, UniProt P35439+Q00961); assay: Antagonist activity at rat recombinant NR1-NR2C receptor expressed in Xenopus oocytes at holding potential of -40mV by two-electrode voltage-clamp electrophysiology; assay type: functional, cell-based, Oocyte
Sequence (Q00961 whole entry, other chains not shown): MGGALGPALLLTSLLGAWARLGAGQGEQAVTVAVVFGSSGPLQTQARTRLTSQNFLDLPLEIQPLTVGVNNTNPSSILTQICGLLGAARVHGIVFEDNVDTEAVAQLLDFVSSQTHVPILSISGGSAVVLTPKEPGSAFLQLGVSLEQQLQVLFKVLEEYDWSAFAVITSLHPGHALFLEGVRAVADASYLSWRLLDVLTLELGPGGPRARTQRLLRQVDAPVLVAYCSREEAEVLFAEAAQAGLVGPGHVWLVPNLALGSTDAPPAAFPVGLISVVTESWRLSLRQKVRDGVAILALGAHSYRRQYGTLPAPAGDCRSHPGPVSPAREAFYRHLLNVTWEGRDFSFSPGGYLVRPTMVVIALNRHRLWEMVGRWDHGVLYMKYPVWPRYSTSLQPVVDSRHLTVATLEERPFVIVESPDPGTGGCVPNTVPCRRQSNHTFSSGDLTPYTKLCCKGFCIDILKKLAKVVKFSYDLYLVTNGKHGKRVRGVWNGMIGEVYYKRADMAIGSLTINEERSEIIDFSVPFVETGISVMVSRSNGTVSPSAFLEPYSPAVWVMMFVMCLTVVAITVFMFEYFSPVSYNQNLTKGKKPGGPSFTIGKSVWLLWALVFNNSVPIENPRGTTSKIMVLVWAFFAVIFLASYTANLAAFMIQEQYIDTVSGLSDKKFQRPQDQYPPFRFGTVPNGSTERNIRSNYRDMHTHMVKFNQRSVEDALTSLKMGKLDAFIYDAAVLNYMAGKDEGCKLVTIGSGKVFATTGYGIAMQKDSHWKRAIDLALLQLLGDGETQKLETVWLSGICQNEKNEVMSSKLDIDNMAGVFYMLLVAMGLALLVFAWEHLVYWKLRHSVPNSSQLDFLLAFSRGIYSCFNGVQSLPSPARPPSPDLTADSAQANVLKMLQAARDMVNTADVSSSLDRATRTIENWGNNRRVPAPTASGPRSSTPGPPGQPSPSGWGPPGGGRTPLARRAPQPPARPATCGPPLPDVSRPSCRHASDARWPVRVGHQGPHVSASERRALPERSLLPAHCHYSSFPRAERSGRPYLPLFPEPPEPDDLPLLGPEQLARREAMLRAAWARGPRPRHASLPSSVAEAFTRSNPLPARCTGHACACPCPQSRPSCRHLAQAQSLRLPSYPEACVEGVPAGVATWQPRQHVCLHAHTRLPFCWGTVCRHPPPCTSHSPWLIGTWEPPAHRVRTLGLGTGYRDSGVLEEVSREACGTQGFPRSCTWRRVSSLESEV
measurement-label: pIC50
Please keep in mind that pIC50 is minus log10 of the molar concentration; only the number is needed.

Study these solved cases before continuing.
>>> print(df.to_string())
                               given_smiles  measurement_label  result_number
0  O=C(O)c1ccc(-n2c(/C=C/c3cccc([N+](=O)[O-])c3)nc3ccccc3c2=O)cc1              pIC50           4.92
1  O=C(O)c1ccc(-n2c(/C=C/c3cccc([N+](=O)[O-])c3)nc3cc4c(cc3c2=O)OCO4)cc1              pIC50           4.40
2  O=C(O)c1ccc(-n2c(/C=C/c3cccc([N+](=O)[O-])c3)nc3cccc(Cl)c3c2=O)cc1              pIC50           4.66

Please give the measured pIC50 for this compound: `O=C(O)c1ccc(-n2c(/C=C/c3ccccc3[N+](=O)[O-])nc3ccccc3c2=O)cc1`
5.10

Please give the measured pIC50 for this compound: `O=C(O)c1ccc(-n2c(/C=C/c3cccc([N+](=O)[O-])c3)nc3ccc(-c4cccs4)cc3c2=O)cc1`
5.30

Please give the measured pIC50 for this compound: `O=C(O)c1cccc(-n2c(/C=C/c3cccnc3)nc3ccc(I)cc3c2=O)c1`
5.15

----------
target: Glutamate receptor 1 (Rattus norvegicus); experiment: Antagonist activity at rat recombinant GLuR1 expressed in Xenopus oocytes assessed as inhibition of glutamate-induced current by two-electrode voltage-clamp electrophysiology; type: functional, cell-based, Oocyte
Sequence (P19490 whole entry): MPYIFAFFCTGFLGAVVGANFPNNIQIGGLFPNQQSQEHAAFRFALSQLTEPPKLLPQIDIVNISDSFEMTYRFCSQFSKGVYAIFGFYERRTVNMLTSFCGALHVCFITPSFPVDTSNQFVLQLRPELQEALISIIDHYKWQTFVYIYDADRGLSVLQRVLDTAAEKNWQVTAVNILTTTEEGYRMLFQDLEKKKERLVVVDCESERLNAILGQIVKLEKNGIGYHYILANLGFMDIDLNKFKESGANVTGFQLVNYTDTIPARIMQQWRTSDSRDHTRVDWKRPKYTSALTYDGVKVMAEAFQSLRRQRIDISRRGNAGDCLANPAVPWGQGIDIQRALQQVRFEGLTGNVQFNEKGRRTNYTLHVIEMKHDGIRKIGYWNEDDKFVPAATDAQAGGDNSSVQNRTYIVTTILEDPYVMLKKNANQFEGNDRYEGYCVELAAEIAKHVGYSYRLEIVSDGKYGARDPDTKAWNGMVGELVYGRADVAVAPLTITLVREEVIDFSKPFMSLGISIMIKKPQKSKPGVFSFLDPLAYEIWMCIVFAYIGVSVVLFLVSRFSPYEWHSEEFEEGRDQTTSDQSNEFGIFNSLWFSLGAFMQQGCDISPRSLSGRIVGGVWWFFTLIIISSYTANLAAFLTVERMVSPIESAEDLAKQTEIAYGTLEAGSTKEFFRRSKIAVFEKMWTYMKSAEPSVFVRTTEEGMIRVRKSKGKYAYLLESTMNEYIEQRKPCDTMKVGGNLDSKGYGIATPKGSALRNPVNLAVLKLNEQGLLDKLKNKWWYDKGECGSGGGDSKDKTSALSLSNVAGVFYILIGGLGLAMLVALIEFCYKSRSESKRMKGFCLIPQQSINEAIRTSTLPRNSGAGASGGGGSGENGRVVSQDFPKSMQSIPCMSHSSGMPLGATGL
# T = IC50 below 100 µM (exclusive); F = IC50 at/above 100 µM

Examples with answers:
In [3]: df
Out[3]:
                               given_smiles  answer_label
0  O=C(O)c1ccc(-n2c(/C=C/c3ccccc3C(F)(F)F)nc3ccccc3c2=O)cc1             F
1  O=C(O)c1cccc(-n2c(/C=C/c3ccccc3[N+](=O)[O-])nc3ccccc3c2=O)c1             T
2  O=C(O)c1ccc(-n2c(/C=C/c3ccc([N+](=O)[O-])cc3)nc3c(Cl)cc(Cl)cc3c2=O)cc1             F

Field: below-cutoff. Rule: recorded IC50 strictly less than 100 µM. Subject: `O=c1c2cc(I)ccc2nc(/C=C/c2cccnc2)n1-c1ccc([N+](=O)[O-])cc1`
F

Field: below-cutoff. Rule: recorded IC50 strictly less than 100 µM. Subject: `O=c1c2cc(I)ccc2nc(/C=C/c2cccnc2)n1-c1ccccc1[N+](=O)[O-]`
F

----------
target: Glutamate NMDA receptor; Grin1/Grin2c (Rattus norvegicus, UniProt P35439+Q00961); assay: Antagonist activity at rat recombinant NR1-NR2C receptor expressed in Xenopus oocytes at holding potential of -40mV by two-electrode voltage-clamp electrophysiology
measurement-label: log10(IC50) (log10 of the value in µM)
In plain terms, each number is the log10 of measured IC50 in µM.

In [3]: df
Out[3]:
                               given_smiles  result_number
0  COC(=O)c1cccc(/C=C/c2nc3ccc(OC)cc3c(=O)n2-c2ccc(C(=O)O)cc2)c1           1.18
1  O=C(O)c1ccc(-n2c(/C=C/c3cccc([N+](=O)[O-])c3)nc3ccc(O)cc3c2=O)cc1           1.63
2  O=C(O)c1ccc(-n2c(/C=C/c3ccc([N+](=O)[O-])cc3)nc3ccccc3c2=O)cc1           1.18
3  O=C(O)c1ccc(-n2c(/C=C/c3cccc([N+](=O)[O-])c3)nc3cc4ccccc4cc3c2=O)cc1           0.30
4  Cc1ccc2nc(CCc3ccccc3)n(-c3ccc(C(=O)O)cc3)c(=O)c2c1           2.26

What reported log10(IC50) corresponds to `CC(C)c1ccc2nc(/C=C/c3cccc([N+](=O)[O-])c3)n(-c3ccc(C(=O)O)cc3)c(=O)c2c1` on Glutamate NMDA receptor; Grin1/Grin2c (Rattus norvegicus, UniProt P35439+Q00961)?
0.78

What reported log10(IC50) corresponds to `COC(=O)c1ccc(-n2c(/C=C/c3cccc([N+](=O)[O-])c3)nc3ccc(OC)cc3c2=O)cc1` on Glutamate NMDA receptor; Grin1/Grin2c (Rattus norvegicus, UniProt P35439+Q00961)?
1.59

What reported log10(IC50) corresponds to `O=C(O)c1ccc(-n2c(/C=C/c3cccc([N+](=O)[O-])c3)nc3ccc(Br)cc3c2=O)cc1` on Glutamate NMDA receptor; Grin1/Grin2c (Rattus norvegicus, UniProt P35439+Q00961)?
0.30

What reported log10(IC50) corresponds to `COc1ccccc1-n1c(/C=C/c2cccnc2)nc2ccc(I)cc2c1=O` on Glutamate NMDA receptor; Grin1/Grin2c (Rattus norvegicus, UniProt P35439+Q00961)?
0.48
